Listed here are molecules together with their documented inhibition at 10 µM.
# STUDY_SYSTEM: BTK (Homo sapiens)
# EXPERIMENT_NOTES: biochemical
# SETTINGS: read-out: BTK inhibition (%), 0.75 uM BTK, […] probe 3l, 15 min preincubation

# MOLECULE, inhibition at 10 µM (%)
data = [
    ("CCN1CCC[C@H]1CNC(=O)c1cc(S(N)(=O)=O)ccc1OC [PCM-0065527]", -6.2),
    ("CC(=O)O[C@@H]1C[C@@]23C[C@@]24CC[C@H](O[C@@H]2OC[C@@H](O)[C@H](O)[C@H]2O)C(C)(C)[C@@H]4CC=C3[C@]2(C)C[C@@H]3OC4(C[C@@H](C)[C@@H]3[C@@]12C)OC(O)C1(C)OC41 (stereo partly shown) [PCM-0216175]", -6.2),
    ("C[C@@H]1O[C@@H](O[C@H]2[C@H](O[C@H]3CC[C@@]4(C)[C@@H](CC[C@]5(C)[C@@H]4CC=C4[C@@H]6CC(C)(C)CC[C@]6(C(=O)O[C@@H]6O[C@H](CO[C@@H]7O[C@H](CO)[C@@H](O)[C@H](O)[C@H]7O)[C@@H](O)[C@H](O)[C@H]6O)CC[C@]45C)[C@]3(C)CO)OC[C@H](O)[C@@H]2O)[C@H](O)[C@H](O[C@@H]2O[C@H](CO)[C@@H](O[C@@H]3O[C@H](CO)[C@@H](O)[C@H](O)[C@H]3O)[C@H](O)[C@H]2O)[C@H]1O [PCM-0215007]", -12.5),
    ("C[C@]12C=CC(=O)C=C1CC[C@@H]1[C@@H]2[C@@H](O)C[C@@]2(C)[C@H]1CC[C@]2(O)C(=O)CO [PCM-0085835]", -7),
]

---

Listed here are compounds together with their documented inhibition at 10 µM.
# STUDY_SYSTEM: BTK (Homo sapiens, UniProt Q06187)
# Sequence (Q06187 402-655 limits assumed): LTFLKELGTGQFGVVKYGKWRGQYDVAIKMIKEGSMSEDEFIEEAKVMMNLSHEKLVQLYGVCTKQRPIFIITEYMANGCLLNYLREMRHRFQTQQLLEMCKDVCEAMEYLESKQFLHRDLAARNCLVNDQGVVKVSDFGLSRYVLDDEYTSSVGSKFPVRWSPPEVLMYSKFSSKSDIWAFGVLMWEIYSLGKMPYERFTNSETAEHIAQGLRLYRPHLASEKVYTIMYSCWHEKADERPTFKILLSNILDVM
# EXPERIMENT_NOTES: biochemical
# SETTINGS: read-out: BTK inhibition (%), 0.75 uM BTK, […] probe 3l, 15 min preincubation

# COMPOUND, inhibition at 10 µM / %
data = [
    ("NC(N)=NCCC[C@H](N)C(=O)O", 2.6),
    ("COc1ccc(-c2cc(=O)c3c(O)cc(O)cc3o2)cc1", 16.6),
    ("CCCC[N+]1(C)[C@@H]2CC(OC(=O)[C@H](CO)c3ccccc3)C[C@H]1[C@@H]1O[C@@H]12 (some centres unmarked)", -17.9),
    ("CNC(=O)c1ccc(C)c(-n2c(C)cc(OCc3ccc(F)cc3F)c(Br)c2=O)c1", -14.5),
    ("CC(=O)OCC1=C(C(=O)O)N2C(=O)[C@@H](NC(=O)Cc3cccs3)[C@H]2SC1", -12.5),
    ("CCOC(=O)N1CCN(c2ccc(OC[C@H]3CO[C@](Cn4ccnc4)(c4ccc(Cl)cc4Cl)O3)cc2)CC1", 8.5),
    ("CCOc1nc2cccc(C(=O)OCc3oc(=O)oc3C)c2n1Cc1ccc(-c2ccccc2-c2noc(=O)[nH]2)cc1", 24.1),
    ("O=C(c1ccc(Nc2nccc(-c3cc4ccccc4s3)n2)cc1)N1CCC(N2CCCC2)CC1", 86.2),
]

---

# STUDY_SYSTEM: UniProtKB Q06187
# EXPERIMENT_NOTES: biochemical
# SETTINGS: read-out: BTK inhibition (%), 0.75 uM BTK, […] probe 3l, 15 min preincubation
Listed here are compounds together with their documented inhibition at 10 µM.
READOUT_TYPE: inhibition at 10 µM

# COMPOUND, RESULT
measured = [
    ("C/C(=C\\CNc1ncnc2c1ncn2[C@@H]1O[C@H](CO)[C@@H](O)[C@H]1O)CO [PCM-0216644]", "0.8%"),
    ("O=C(O)c1cc(C(=O)O)c2c(n1)C(=O)C(=O)c1cc(C(=O)O)[nH]c1-2 [PCM-0216638]", "-0.8%"),
    ("CC1=CC(=O)c2ccccc2C1=O [PCM-0009823]", "-3.1%"),
    ("CN(C)[C@@H](CCOc1cccc2ccccc12)c1ccccc1 [PCM-0095178]", "6.2%"),
    ("CC(/C=C/C=C(\\C)C(=O)O[C@@H]1O[C@H](CO)[C@@H](O)[C@H](O)[C@H]1O)=C\\C=C\\C=C(C)\\C=C\\C=C(/C)C(=O)O[C@@H]1O[C@H](CO[C@@H]2O[C@H](CO)[C@@H](O)[C@H](O)[C@H]2O)[C@@H](O)[C@H](O)[C@H]1O [PCM-0216484]", "16.2%"),
    ("O=C[C@H](O)[C@@H](O)[C@H](O)[C@H](O)COP(=O)(O)O [PCM-0216185]", "13.6%"),
    ("O=C1O[C@H]([C@@H](O)CO)C(O)=C1OP(=O)(O)O [PCM-0215970]", "-4.3%"),
]
